- Tested on: T-47D breast
- protocolText: NCI-60 one-dose screen, 48 h
- settings: 10 µM unless noted
- Procedure: Growth inhibition of the T-47D human tumor cell line is measured as a screen for anti-cancer activity. Cells are grown in 96 well plates and exposed to the test compound for 48 hours. Compounds are tested at a single concentration, which is 10^-5 M for most compounds. The reported endpoint is percent growth (GI% or GIPRCNT), where numbers from 0 - 100% represent growth inhibition, and numbers from -100% - 0 represent cell death. For example, a value of 40 represents 60% growth inhibition. […]
Compounds without any hit were thinned out: in the full panel of roughly 83,000, 20% have a hit. Active and inactive are the calls of the source. How the source made its calls: active means growth percent below 10; inactive means the rest.
Form entry, call: pick from YES (active), NO (inactive)

// return assay outcome for CCN1C(=O)N(CC)C2C1NN=c1s/c(=C\c3ccc(OC)cc3)c(=O)n12 (centres undefined)
NO

// return assay outcome for `CS(=O)(=O)Nc1cc(-c2ccc3ncnc(Nc4ccc(F)c(Cl)c4)c3c2)ccc1Cl`
NO

// return assay outcome for `O=C(Nc1ccc(Oc2cccc(Cl)c2)c(Cl)c1)c1cccnn1`
NO

// return assay outcome for [N-]=[N+]=NCC1OC(n2cnc3c(NC(=O)Nc4ccccc4)ncnc32)C2OC(=O)CC12 (centres undefined)
NO

// return assay outcome for `COc1cc(/C=C/C(=O)N2CCN(C(=O)c3cc(OC)c(OC)c(OC)c3)CC2)ccc1OCCCOc1cc2c(cc1OC)C(=O)N1CCC[C@H]1C=N2`
YES

// return assay outcome for `O=c1oc2c(cc1-c1ccccc1)c[n+]([O-])c1ccccc21`
NO

// return assay outcome for `COCCn1cc(-c2csc(-c3c[nH]c4ccc(F)cc34)n2)c2cccnc21`
YES

// return assay outcome for `CCOC(=O)c1nnn(Cc2cc(=O)oc3ccc(O)cc23)c1C`
NO

// return assay outcome for `COc1ccc(/C=C2\CN(C(=O)C(Cl)Cl)C/C(=C\c3ccc(OC)c(OC)c3)C2=O)cc1OC`
YES

// return assay outcome for `COC(=O)[C@]1(C)CCC[C@]2(C)[C@H]3C[C@@H]4[C@H]5[C@@H]6CC/C(=N\OCC/C(N)=N/O)[C@H]5[C@@]3(CC[C@H]21)CC4(C(C)C)O6`
NO

// return assay outcome for `CNC(=O)c1cc(Oc2ccc3c(c2)sc2nc(-c4cc(C(F)(F)F)cc(C(F)(F)F)c4)cn23)ccn1`
NO

// return assay outcome for `CSc1nc2ccc(C)cc2cc1/C=C1/C=C(c2ccccc2)NC1=O`
YES

// return assay outcome for `CCCCNC(=O)c1ccc2c(c1)nc(-c1ccccc1)n2C1CCCCC1`
NO

// return assay outcome for `Nc1ccc(-c2ccncc2)cc1NC(=O)N1CCCC1`
NO

// return assay outcome for `Clc1ccc(-c2cc(-c3ccccc3)nc(N3CCN(CCCNc4ccnc5cc(Cl)ccc45)CC3)n2)cc1`
YES

// return assay outcome for `O=S(O)c1cc(Cl)cc(Cl)c1OCc1ccccc1`
NO

// return assay outcome for `CN1C(=O)/C(=C/c2ccc(C(=O)Nc3ncc(Cc4cccc(C(F)(F)F)c4)s3)cc2)SC1=S`
NO

// return assay outcome for OC1(c2ccccc2)c2ccccc2N(c2ccccc2)c2ccc(Cl)cc21 (centres undefined)
YES

// return assay outcome for COc1ccc(C(O)c2cc3c(N)c(C(=O)Nc4cccc5ccccc45)sc3nc2C)cc1 (centres undefined)
NO
